- target_or_system: T1, human IL-12 (human, UniProt P29460 23-328; P29459 23-219)
- T1 construct: also called Interleukin-12
- T1 sequence 1: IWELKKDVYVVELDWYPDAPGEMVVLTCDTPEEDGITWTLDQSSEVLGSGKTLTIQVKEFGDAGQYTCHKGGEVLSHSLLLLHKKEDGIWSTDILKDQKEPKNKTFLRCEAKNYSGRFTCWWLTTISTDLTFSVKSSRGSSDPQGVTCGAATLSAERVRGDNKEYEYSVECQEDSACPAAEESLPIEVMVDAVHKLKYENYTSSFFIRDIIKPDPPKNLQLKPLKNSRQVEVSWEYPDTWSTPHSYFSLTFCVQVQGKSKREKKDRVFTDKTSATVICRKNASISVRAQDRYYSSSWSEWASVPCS
- T1 sequence 2: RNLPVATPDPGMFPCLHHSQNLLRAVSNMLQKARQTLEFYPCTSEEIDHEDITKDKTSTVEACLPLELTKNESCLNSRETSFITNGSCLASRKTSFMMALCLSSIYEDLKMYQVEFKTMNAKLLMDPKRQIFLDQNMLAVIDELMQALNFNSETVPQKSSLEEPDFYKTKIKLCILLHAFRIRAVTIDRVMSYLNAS
- procedure_text: SPR (Biacore T200), 37 C, pH 7.4; captured antibody, IL-12 analyte
attribute_measured: Kd (nM)
Field format: number, assumed nM, no unit text.

>>> recorded_measurement("Anti-IL-12 antibody Ab1 variant L45Q VH/P44A, Y49A VL (antibody, name in Kabat numbering, V domains shown, Ab1 with VH/VL interface substitutions; Kabat numbering) VH: QVQLVQSGAEVKKPGSSVKVSCKASGGTFSDYYLHWVRQAPGQGQEWMGWIDPENGDTEYAPKFQGRVTITADESTSTAYMELSSLRSEDTAVYYCARNKELRYFDVWGQGTLVTVSS VL: DIVMTQSPLSLPVTPGEPASISCRASQSISINLHWYQQKPGQAARLLIAFASQSISGVPSRFSGSGSGTDFTLTISSLQPEDFATYYCQQSNSFPLTFGQGTKVEIKR")
2.74
>>> recorded_measurement("Anti-IL-12 antibody Ab1 variant Y91M VH/A43Q, Y49A VL (antibody, name in Kabat numbering, V domains shown, Ab1 with VH/VL interface substitutions; Kabat numbering) VH: QVQLVQSGAEVKKPGSSVKVSCKASGGTFSDYYLHWVRQAPGQGLEWMGWIDPENGDTEYAPKFQGRVTITADESTSTAYMELSSLRSEDTAVYMCARNKELRYFDVWGQGTLVTVSS VL: DIVMTQSPLSLPVTPGEPASISCRASQSISINLHWYQQKPGQQPRLLIAFASQSISGVPSRFSGSGSGTDFTLTISSLQPEDFATYYCQQSNSFPLTFGQGTKVEIKR")
1.87
>>> recorded_measurement("Anti-IL-12 antibody Ab1 variant -/Y87A VL (antibody, V domains shown, Ab1 with VH/VL interface substitutions; Kabat numbering) VH: QVQLVQSGAEVKKPGSSVKVSCKASGGTFSDYYLHWVRQAPGQGLEWMGWIDPENGDTEYAPKFQGRVTITADESTSTAYMELSSLRSEDTAVYYCARNKELRYFDVWGQGTLVTVSS VL: DIVMTQSPLSLPVTPGEPASISCRASQSISINLHWYQQKPGQAPRLLIYFASQSISGVPSRFSGSGSGTDFTLTISSLQPEDFATYACQQSNSFPLTFGQGTKVEIKR")
1.21
>>> recorded_measurement("Anti-IL-12 antibody Ab1 variant L45A VH/- (antibody, name in Kabat numbering, V domains shown, Ab1 with VH/VL interface substitutions; Kabat numbering) VH: QVQLVQSGAEVKKPGSSVKVSCKASGGTFSDYYLHWVRQAPGQGAEWMGWIDPENGDTEYAPKFQGRVTITADESTSTAYMELSSLRSEDTAVYYCARNKELRYFDVWGQGTLVTVSS VL: DIVMTQSPLSLPVTPGEPASISCRASQSISINLHWYQQKPGQAPRLLIYFASQSISGVPSRFSGSGSGTDFTLTISSLQPEDFATYYCQQSNSFPLTFGQGTKVEIKR")
1.27

// moving on: another record for Kd
Query: Give its Kd value. Item: Anti-IL-12 antibody Ab1 variant Y91A VH/P44A, Y49A VL (antibody, name in Kabat numbering, V domains shown, Ab1 with VH/VL interface substitutions; Kabat numbering) VH: QVQLVQSGAEVKKPGSSVKVSCKASGGTFSDYYLHWVRQAPGQGLEWMGWIDPENGDTEYAPKFQGRVTITADESTSTAYMELSSLRSEDTAVYACARNKELRYFDVWGQGTLVTVSS VL: DIVMTQSPLSLPVTPGEPASISCRASQSISINLHWYQQKPGQAARLLIAFASQSISGVPSRFSGSGSGTDFTLTISSLQPEDFATYYCQQSNSFPLTFGQGTKVEIKR
Reply: 2.32
